# Tested on: Staphylococcus epidermidis
# procedure.summary: Antibacterial activity against methicillin-sensitive Staphylococcus epidermidis 09-3 after 18 to 24 hrs by twofold serial dilution method
# Format: functional
Each record here notes measured MIC.

compound	system	value.qualifier	MIC (µg/mL)
CO/N=C1\CN(c2c(F)cc3c(=O)c(C(=O)O)cn(CCF)c3c2F)CC1/C(N)=N\OC (centres undefined)	Staphylococcus epidermidis	=	0.25
CCO/N=C1\CN(c2c(F)cc3c(=O)c(C(=O)O)cn(CC)c3c2F)CC1/C(N)=N\OC (centres undefined)	Staphylococcus epidermidis	=	0.125
CCO/N=C1\CN(c2c(F)cc3c(=O)c(C(=O)O)cn4c3c2OC[C@@H]4C)CC1/C(N)=N\OCC (some centres undefined)	Staphylococcus epidermidis	=	8
CCO/N=C1\CN(c2nc3c(cc2F)c(=O)c(C(=O)O)cn3C2CC2)CC1/C(N)=N\OCC (centres undefined)	Staphylococcus epidermidis	>	128
CCO/N=C1\CN(c2c(F)cc3c(=O)c(C(=O)O)cn(C4CC4)c3c2OC(F)F)CC1/C(N)=N\O (centres undefined)	Staphylococcus epidermidis	=	1
CO/N=C1\CN(c2c(F)cc3c(=O)c(C(=O)O)cn(C4CC4)c3c2OC)CC1/C(N)=N\O (centres undefined)	Staphylococcus epidermidis	=	0.25
CCO/N=C1\CN(c2c(F)cc3c(=O)c(C(=O)O)cn4c3c2OC[C@@H]4C)CC1/C(N)=N\O (some centres undefined)	Staphylococcus epidermidis	=	0.25
CCO/N=C1\CN(c2c(F)cc3c(=O)c(C(=O)O)cn(CCF)c3c2F)CC1/C(N)=N\OCC (centres undefined)	Staphylococcus epidermidis	=	4
CCO/N=C(/N)C1CN(c2nc3c(cc2F)c(=O)c(C(=O)O)cn3-c2ccc(F)cc2F)C/C1=N\OC (centres undefined)	Staphylococcus epidermidis	=	0.125
CO/N=C1\CN(c2nc3c(cc2F)c(=O)c(C(=O)O)cn3C2CC2)CC1/C(N)=N\O (centres undefined)	Staphylococcus epidermidis	=	128
CO/N=C1\CN(c2nc3c(cc2F)c(=O)c(C(=O)O)cn3C2CC2)CC1/C(N)=N\OC (centres undefined)	Staphylococcus epidermidis	=	0.25
CCO/N=C1\CN(c2nc3c(cc2F)c(=O)c(C(=O)O)cn3-c2ccc(F)cc2F)CC1/C(N)=N\OCC (centres undefined)	Staphylococcus epidermidis	=	32
CO/N=C1\CN(c2c(F)cc3c(=O)c(C(=O)O)cn(C4CC4)c3c2OC)CC1/C(N)=N\OC (centres undefined)	Staphylococcus epidermidis	=	0.125
CCO/N=C1\CN(c2c(F)cc3c(=O)c(C(=O)O)cn4c3c2OC[C@@H]4C)CC1/C(N)=N\OC (some centres undefined)	Staphylococcus epidermidis	=	0.25
CCO/N=C1\CN(c2c(F)cc3c(=O)c(C(=O)O)cn(C4CC4)c3c2OC)CC1/C(N)=N\O (centres undefined)	Staphylococcus epidermidis	=	0.25
CCO/N=C(/N)C1CN(c2c(F)cc3c(=O)c(C(=O)O)cn(CC)c3c2F)C/C1=N\OC (centres undefined)	Staphylococcus epidermidis	=	0.25
CCO/N=C1\CN(c2nc3c(cc2F)c(=O)c(C(=O)O)cn3-c2ccc(F)cc2F)CC1/C(N)=N\OC (centres undefined)	Staphylococcus epidermidis	=	0.125
CCO/N=C(/N)C1CN(c2nc3c(cc2F)c(=O)c(C(=O)O)cn3C2CC2)C/C1=N\OC (centres undefined)	Staphylococcus epidermidis	=	0.25
CCO/N=C1\CN(c2c(F)cc3c(=O)c(C(=O)O)cn(CCF)c3c2F)CC1/C(N)=N\O (centres undefined)	Staphylococcus epidermidis	=	0.5

Where do the numbers come from? From ChEMBL document CHEMBL1287651.
